Experiment: Stability of peptides in human liver microsomes
Assay type: in vitro ADME
Details: human, microsomes
Where a SMILES comes first, the peptide text is derived from it. [ ]: non-standard residue; d: D form. ξ: configuration not given here. Arg(NO2) = N=C(NCCC[C@H](N)C(=O)O)N[N+](=O)[O-]; ξαMePhe(2,6-F2) = CC(N)(Cc1c(F)cccc1F)C(=O)O; ξαMePhe(2-F) = CC(N)(Cc1ccccc1F)C(=O)O; hArg = N=C(N)NCCCC[C@H](N)C(=O)O; hCit = NC(=O)NCCCC[C@H](N)C(=O)O; ξαMeF = CC(N)(Cc1ccccc1)C(=O)O; Nle = CCCC[C@H](N)C(=O)O; Orn = NCCC[C@H](N)C(=O)O; ξαMeP = CC1(C(=O)O)CCCN1; Ac5c = NC1(C(=O)O)CCCC1; Ac3c = NC1(C(=O)O)CC1; Aib = CC(C)(N)C(=O)O
Collected half-life values appear next to each entry.

compound: CCCC[C@H](NC(=O)C(C)(Cc1ccccc1F)NC(=O)[C@H](CCC(N)=O)NC(=O)[C@@H](NC(=O)[C@H](CCC(=O)O)NC(=O)C(C)(C)NC(=O)[C@@H](NC(=O)C1(N)CCCC1)C(C)C)[C@@H](C)CC)C(=O)N[C@@H](Cc1c[nH]cn1)C(=O)N[C@@H](CCC(N)=O)C(=O)N[C@@H](CCCCNC(=N)N)C(=O)NC(C)(C)C(=O)N[C@@H](CCCNC(=N)N[N+](=O)[O-])C(=O)NC(C)(Cc1ccccc1F)C(N)=O (some centres unmarked) [Seq. ID. 250] (H-[Ac5c]V[Aib]EIQ[ξαMePhe(2-F)][Nle]HQ[hArg][Aib][Arg(NO2)][ξαMePhe(2-F)]-NH2)
half-life (h): 1
--
compound: CC[C@H](C)[C@H](NC(=O)[C@H](CCC(=O)O)NC(=O)C(C)(C)NC(=O)[C@@H](NC(=O)C1(N)CC1)C(C)C)C(=O)N[C@@H](CCC(N)=O)C(=O)N[C@@H](CC(C)C)C(=O)N[C@@H](CCSC)C(=O)N[C@@H](Cc1c[nH]cn1)C(=O)N[C@@H](CCC(N)=O)C(=O)N[C@@H](CCCCNC(=N)N)C(=O)NC(C)(C)C(=O)N[C@@H](CCCCN)C(=O)NC(C)(Cc1ccccc1)C(N)=O (some centres unmarked) [Seq. ID. 14] (H-[Ac3c]V[Aib]EIQLMHQ[hArg][Aib]K[ξαMeF]-NH2)
half-life (h): 2
--
compound: CCCC[C@H](NC(=O)C(C)(Cc1ccccc1F)NC(=O)[C@H](CCC(N)=O)NC(=O)[C@@H](NC(=O)[C@H](CCC(=O)O)NC(=O)C1(NC(=O)[C@@H](NC(=O)C2(N)CCCC2)C(C)C)CCCC1)[C@@H](C)CC)C(=O)N[C@@H](Cc1c[nH]cn1)C(=O)N[C@@H](CCC(N)=O)C(=O)N[C@@H](CCCCNC(=N)N)C(=O)N1CCCC1(C)C(=O)N[C@@H](CCCCN)C(=O)NC(C)(Cc1c(F)cccc1F)C(N)=O (some centres unmarked) [Seq. ID. 100] (H-[Ac5c]V[Ac5c]EIQ[ξαMePhe(2-F)][Nle]HQ[hArg][ξαMeP]K[ξαMePhe(2,6-F2)]-NH2)
half-life (h): 2
--
compound: CCCC[C@H](NC(=O)C(C)(Cc1c(F)cccc1F)NC(=O)[C@H](CCC(N)=O)NC(=O)[C@@H](NC(=O)[C@H](CCC(=O)O)NC(=O)C(C)(C)NC(=O)[C@@H](NC(=O)C(C)(C)N)C(C)C)[C@@H](C)CC)C(=O)N[C@@H](Cc1c[nH]cn1)C(=O)N[C@@H](CCC(N)=O)C(=O)N[C@@H](CCCCNC(N)=O)C(=O)NC(C)(C)C(=O)NC(C)(C)C(=O)NC(C)(Cc1ccccc1F)C(N)=O (some centres unmarked) [Seq. ID. 430] (H-[Aib]V[Aib]EIQ[ξαMePhe(2,6-F2)][Nle]HQ[hCit][Aib][Aib][ξαMePhe(2-F)]-NH2)
half-life (h): 2
--
compound: CCCC[C@H](NC(=O)C(C)(Cc1ccccc1F)NC(=O)[C@H](CCC(N)=O)NC(=O)[C@@H](NC(=O)[C@H](CCC(=O)O)NC(=O)C(C)(C)NC(=O)[C@@H](NC(=O)C(C)(C)N)C(C)C)[C@@H](C)CC)C(=O)N[C@@H](Cc1c[nH]cn1)C(=O)N[C@@H](CCC(N)=O)C(=O)N[C@@H](CCCCNC(=N)N)C(=O)N1CCCC1(C)C(=O)N[C@@H](CCCCN)C(=O)NC(C)(Cc1ccccc1)C(N)=O (some centres unmarked) [Seq. ID. 25] (H-[Aib]V[Aib]EIQ[ξαMePhe(2-F)][Nle]HQ[hArg][ξαMeP]K[ξαMeF]-NH2)
half-life (h): 1
--
compound: CCCC[C@H](NC(=O)C(C)(Cc1ccccc1F)NC(=O)[C@H](CCC(N)=O)NC(=O)[C@@H](NC(=O)[C@H](CCC(=O)O)NC(=O)C(C)(C)NC(=O)[C@@H](NC(=O)C1(N)CCCC1)C(C)C)[C@@H](C)CC)C(=O)N[C@@H](Cc1c[nH]cn1)C(=O)N[C@@H](CCC(N)=O)C(=O)N[C@@H](CCCN)C(=O)N[C@@H](C)C(=O)NC(C)(Cc1c(F)cccc1F)C(=O)NC(C)(Cc1ccccc1F)C(N)=O (some centres unmarked) [Seq. ID. 315] (H-[Ac5c]V[Aib]EIQ[ξαMePhe(2-F)][Nle]HQ[Orn]A[ξαMePhe(2,6-F2)][ξαMePhe(2-F)]-NH2)
half-life (h): 0.5
--
compound: CCCC[C@H](NC(=O)C(C)(Cc1ccccc1F)NC(=O)[C@H](CCC(N)=O)NC(=O)[C@@H](NC(=O)[C@H](CCC(=O)O)NC(=O)C(C)(C)NC(=O)[C@@H](NC(=O)C1(N)CCCC1)C(C)C)[C@@H](C)CC)C(=O)N[C@@H](Cc1c[nH]cn1)C(=O)N[C@@H](CCC(N)=O)C(=O)N[C@@H](CCCCNC(=N)N)C(=O)NC(C)(C)C(=O)N[C@@H](CCCNC(=N)N[N+](=O)[O-])C(=O)NC(C)(Cc1c(F)cccc1F)C(N)=O (some centres unmarked) [Seq. ID. 270] (H-[Ac5c]V[Aib]EIQ[ξαMePhe(2-F)][Nle]HQ[hArg][Aib][Arg(NO2)][ξαMePhe(2,6-F2)]-NH2)
half-life (h): 0.5
--
compound: CCCC[C@H](NC(=O)C(C)(Cc1ccccc1F)NC(=O)[C@H](CCC(N)=O)NC(=O)[C@@H](NC(=O)[C@H](CCC(=O)O)NC(=O)C(C)(C)NC(=O)[C@@H](NC(=O)C1(N)CCCC1)C(C)C)[C@@H](C)CC)C(=O)N[C@@H](Cc1c[nH]cn1)C(=O)N[C@@H](CCC(N)=O)C(=O)NC(C)(C)C(=O)NC(C)(C)C(=O)NC(C)(Cc1c(F)cccc1F)C(=O)NC(C)(Cc1c(F)cccc1F)C(N)=O (some centres unmarked) [Seq. ID. 580] (H-[Ac5c]V[Aib]EIQ[ξαMePhe(2-F)][Nle]HQ[Aib][Aib][ξαMePhe(2,6-F2)][ξαMePhe(2,6-F2)]-NH2)
half-life (h): 1

Where do these numbers come from? They come from patent US8383581B2.
